# Experiment description: first-order primary biodegradation rate constant k (sorption-corrected, fDis-corrected) (d-1); higher = faster biodegradation
# Measurement conditions: river segment: Spain (ES) B_Contam; incubation temperature 24 °C
Measure: first-order primary biodegradation rate constant k

[[record]]
molecule = "COc1ccc(C(CN(C)C)C2(O)CCCCC2)cc1 (configuration not stated)"
reading = 0.0466

[[record]]
molecule = "CCN(CC)CC(=O)Nc1c(C)cccc1C"
reading = 0.0307

[[record]]
molecule = "Cc1ccc(NC(=O)N(C)C)cc1Cl"
reading = 0.0189

[[record]]
molecule = "CCOC(=O)c1ccc(O)cc1"
reading = 0.466

[[record]]
molecule = "Cc1ccc(-c2nc3ccc(C)cn3c2CC(=O)N(C)C)cc1"
reading = 0.709

[[record]]
molecule = "CN(C)CCN1C(=O)c2ccccc2N(C)c2ccccc21 [Dibenzepin]"
reading = 0.0245

[[record]]
molecule = "O=[N+]([O-])c1ccc(Cc2ccncc2)cc1"
reading = 0.863

[[record]]
molecule = "CNC(=C[N+](=O)[O-])NCCSCc1ccc(CN(C)C)o1"
reading = 1.57

[[record]]
molecule = "NCC1(CC(=O)O)CCCCC1"
reading = 0.811

[[record]]
molecule = "COc1cc(NS(=O)(=O)c2ccc(N)cc2)nc(OC)n1"
reading = 1.13

[[record]]
molecule = "Cc1ccc(C)c(OCCCC(C)(C)C(=O)O)c1"
reading = 0.371

[[record]]
molecule = "c1ccc2[nH]nnc2c1"
reading = 0.0121

[[record]]
molecule = "Cc1ccc(C(C)NC(=O)[C@@H](NC(=O)OC(C)C)C(C)C)cc1 (some centres not stated)"
reading = 0.211

[[record]]
molecule = "CC(=O)NC[C@H]1CN(c2ccc(N3CCOCC3)c(F)c2)C(=O)O1"
reading = 0.0257

[[record]]
molecule = "CC(C)NCC(O)COc1ccc(COCCOC(C)C)cc1 (configuration not stated)"
reading = 0.569

[[record]]
molecule = "CCN1CCCC1CNC(=O)c1cc(S(=O)(=O)CC)c(N)cc1OC (configuration not stated) [Amisulpride]"
reading = 0.0427

[[record]]
molecule = "CC1=CC(=O)NS(=O)(=O)O1"
reading = 1.27

[[record]]
molecule = "Nc1ccc(S(=O)(=O)Nc2nccs2)cc1"
reading = 0.646

[[record]]
molecule = "CCOC(=O)C1CC(=O)C(=C(O)C2CC2)C(=O)C1 (configuration not stated)"
reading = 0.337

[[record]]
molecule = "C#CCN(C)Cc1ccccc1"
reading = 0.0362

[[record]]
molecule = "CC1(C)C[C@@H]1C(=O)N/C(=C\\CCCCSC[C@H](N)C(=O)O)C(=O)O"
reading = 10.1

[[record]]
molecule = "Cn1c(=O)c2c(ncn2C)n(C)c1=O"
reading = 1.52

[[record]]
molecule = "CCOc1ccccc1OCCN[C@H](C)Cc1ccc(OC)c(S(N)(=O)=O)c1"
reading = 0.121

[[record]]
molecule = "O=C(O)Cc1ccccc1Nc1c(Cl)cccc1Cl"
reading = 0.574

[[record]]
molecule = "CC(C)NCC(O)COc1ccc(CC(N)=O)cc1 (configuration not stated)"
reading = 2.88

[[record]]
molecule = "CC(C(=O)O)c1cccc(C(=O)c2ccccc2)c1 (configuration not stated)"
reading = 0.235

[[record]]
molecule = "C=CCOc1ccccc1OCC(O)CNC(C)C (configuration not stated)"
reading = 0.107

[[record]]
molecule = "COc1cccc(C2(O)CCCCC2CN(C)C)c1 (configuration not stated)"
reading = 0.00653

[[record]]
molecule = "Cc1ccc(S(=O)(=O)O)cc1"
reading = 0.18

[[record]]
molecule = "COCCc1ccc(OCC(O)CNC(C)C)cc1 (configuration not stated)"
reading = 0.253

[[record]]
molecule = "COC(=O)Nc1nc2ccccc2[nH]1"
reading = 0.0208

[[record]]
molecule = "CC(C)(C)C(=O)C(Oc1ccc(Cl)cc1)n1ccnc1 (configuration not stated)"
reading = 0.421

[[record]]
molecule = "COc1cc(Cc2cnc(N)nc2N)cc(OC)c1OC"
reading = 0.192

[[record]]
molecule = "CC[C@@H](C(N)=O)N1CCCC1=O"
reading = 0.958

[[record]]
molecule = "Cc1cc(Cl)ccc1OC(C)C(=O)O (configuration not stated)"
reading = 0.0613

[[record]]
molecule = "CN(C)CCCC1(c2ccc(F)cc2)OCc2cc(C#N)ccc21 (configuration not stated)"
reading = 0.279

[[record]]
molecule = "CCNc1nc(Cl)nc(NC(C)C)n1"
reading = 0.103

[[record]]
molecule = "CC(C)(Oc1ccc(CCNC(=O)c2ccc(Cl)cc2)cc1)C(=O)O [Bezafibrate]"
reading = 1.03

[[record]]
molecule = "COc1ccc2cc([C@H](C)C(=O)O)ccc2c1"
reading = 0.76

[[record]]
molecule = "CCc1cccc(CC)c1N(COC)C(=O)CCl"
reading = 0.115

[[record]]
molecule = "CCc1cccc(C)c1N(C(=O)CCl)C(C)COC (configuration not stated)"
reading = 0.0124

[[record]]
molecule = "CC(=O)Nc1ccc(O)cc1"
reading = 1.24

